test system: HT29 colon; experiment: NCI tumour cell line growth inhibition, 48 h; in the data active = GI50 below about 0.43 µM; inactive = the rest
Possible outcomes: 1 (yes) = active, 0 (no) = inactive

{"columns": ["compound", "testTarget", "assignedClass"],
 "data": [
  ["N=C(N)SCc1ccc([N+](=O)[O-])cc1[N+](=O)[O-]", "HT29 colon", "0 (no)"],
  ["Nc1cc2nc3ccccc3oc-2cc1=O", "HT29 colon", "0 (no)"],
  ["CC1(C)CC(=O)c2c(ccc(C(=O)C[C@@H](N)CO)c2N)O1", "HT29 colon", "1 (yes)"],
  ["CCN(Cc1cccc(F)c1F)c1ccc(CO)c(Cl)c1", "HT29 colon", "0 (no)"],
  ["CCOC(=O)c1nc2cc(C(F)(F)F)ccc2[n+]([O-])c1C", "HT29 colon", "0 (no)"],
  ["CC(C)(C)OC(=O)NCCCCCCCCCCn1c2c(c3ccccc3c1=O)C(=O)c1ccccc1-2", "HT29 colon", "0 (no)"],
  ["CNC(=O)c1cc2c(Oc3ccc(NC(=S)NC(=O)Cc4ccccc4)cc3F)ccnc2cc1OC", "HT29 colon", "0 (no)"],
  ["O=C(c1ccccc1)c1nn(-c2ccccc2)c2nc3nc(-c4ccccc4)cc(=O)n3nc12", "HT29 colon", "0 (no)"],
  ["COc1cc(C2C3=C(COC3=O)Nc3cc4c(cc32)OCO4)cc2c1OCO2 (stereo not given)", "HT29 colon", "1 (yes)"],
  ["C[C@]12CC[C@@H]3c4ccc(O)cc4CC[C@H]3[C@@H]1CC[C@@H]2NS(=O)(=O)c1ccc2ccccc2c1", "HT29 colon", "0 (no)"]
]}
